Target: USP42 (UniProt Q9H9J4)
Sequence (Q9H9J4 whole entry, the tested form may be a part): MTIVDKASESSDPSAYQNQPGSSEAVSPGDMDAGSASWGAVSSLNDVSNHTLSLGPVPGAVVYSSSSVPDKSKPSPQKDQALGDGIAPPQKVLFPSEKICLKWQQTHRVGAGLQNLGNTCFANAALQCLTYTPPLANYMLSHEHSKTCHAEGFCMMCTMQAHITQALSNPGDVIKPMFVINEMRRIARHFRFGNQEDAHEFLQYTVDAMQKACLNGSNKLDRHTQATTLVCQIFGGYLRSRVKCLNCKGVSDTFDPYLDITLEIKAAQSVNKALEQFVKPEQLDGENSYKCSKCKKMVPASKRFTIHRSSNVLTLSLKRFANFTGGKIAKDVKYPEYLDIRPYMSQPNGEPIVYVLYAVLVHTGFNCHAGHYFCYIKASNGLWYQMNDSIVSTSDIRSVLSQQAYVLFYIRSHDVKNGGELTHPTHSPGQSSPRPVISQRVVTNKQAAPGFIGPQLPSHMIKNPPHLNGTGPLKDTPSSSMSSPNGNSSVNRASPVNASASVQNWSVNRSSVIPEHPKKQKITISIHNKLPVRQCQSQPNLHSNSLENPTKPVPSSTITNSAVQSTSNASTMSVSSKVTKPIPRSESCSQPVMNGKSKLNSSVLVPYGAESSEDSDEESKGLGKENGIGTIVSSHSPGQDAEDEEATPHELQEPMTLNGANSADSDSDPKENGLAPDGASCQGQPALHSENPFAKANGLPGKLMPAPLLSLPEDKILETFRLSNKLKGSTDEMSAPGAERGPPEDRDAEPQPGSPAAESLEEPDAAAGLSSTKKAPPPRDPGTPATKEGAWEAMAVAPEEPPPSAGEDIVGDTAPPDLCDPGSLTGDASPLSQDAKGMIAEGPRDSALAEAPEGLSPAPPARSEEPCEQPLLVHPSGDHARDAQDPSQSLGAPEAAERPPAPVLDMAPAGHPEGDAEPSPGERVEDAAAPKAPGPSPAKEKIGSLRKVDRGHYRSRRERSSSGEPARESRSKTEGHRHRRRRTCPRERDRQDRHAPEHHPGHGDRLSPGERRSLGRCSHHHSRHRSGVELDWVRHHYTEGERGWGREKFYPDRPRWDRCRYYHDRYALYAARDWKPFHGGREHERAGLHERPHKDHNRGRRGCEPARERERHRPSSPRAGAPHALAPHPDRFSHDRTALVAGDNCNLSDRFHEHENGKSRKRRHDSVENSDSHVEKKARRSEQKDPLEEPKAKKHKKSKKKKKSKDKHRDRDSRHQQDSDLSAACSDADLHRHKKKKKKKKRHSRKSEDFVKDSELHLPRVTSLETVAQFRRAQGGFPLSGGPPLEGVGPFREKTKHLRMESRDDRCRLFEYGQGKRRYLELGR
Experiment: log2 ratio of Biotin-Ahx-Ub-VS probe labelling (fragment/DMSO); higher = less target engagement (more negative = stronger competition), active = hit call of the paper (q ≤ 0.05, log2 ratio ≤ -1)
Conditions: compound concentration: 200 uM; treatment time: 3 h
Quantity kind: log2 ratio of Biotin-Ahx-Ub-VS probe labelling
Answer using only a numeral; do not append any unit.

Worked examples, 2 molecules total:
# lookup: log2 ratio of Biotin-Ahx-Ub-VS probe labelling of `O=C(CCl)NCc1ccc(N2CCOCC2)c(F)c1`
0.396

Similarly, `O=C(CCl)NCC1(c2ccccc2)CC1` ?
-0.475

---
# lookup: log2 ratio of Biotin-Ahx-Ub-VS probe labelling of CC1(NC(=O)CCl)CCS(=O)(=O)C1 (configuration not stated)
0.324

Similarly, CC(=O)C1CCCCN1C(=O)CCl (configuration not stated) ?
0.359

Similarly, `Cc1n[nH]c(=O)c2c(NC(=O)CCl)oc(C)c12` ?
0.339

Similarly, NC(=O)C(Cc1ccccc1)NC(=O)CCl (configuration not stated) ?
-0.119

Similarly, Cc1cc(CC(C)NC(=O)CCl)n[nH]1 (configuration not stated) ?
-0.515

Similarly, `Cl.O=C(CCl)N1CCn2ncc(O)c2C1` ?
-0.139

Similarly, `CS(=O)(=O)N1CCCN(C(=O)CCl)CC1` ?
-0.107

Similarly, `Cc1ccccc1C1(CNC(=O)CCl)CCOCC1` ?
-0.0942

====

Target: VCPIP1 (UniProt Q96JH7)
Sequence (Q96JH7 whole entry, the tested form may be a part): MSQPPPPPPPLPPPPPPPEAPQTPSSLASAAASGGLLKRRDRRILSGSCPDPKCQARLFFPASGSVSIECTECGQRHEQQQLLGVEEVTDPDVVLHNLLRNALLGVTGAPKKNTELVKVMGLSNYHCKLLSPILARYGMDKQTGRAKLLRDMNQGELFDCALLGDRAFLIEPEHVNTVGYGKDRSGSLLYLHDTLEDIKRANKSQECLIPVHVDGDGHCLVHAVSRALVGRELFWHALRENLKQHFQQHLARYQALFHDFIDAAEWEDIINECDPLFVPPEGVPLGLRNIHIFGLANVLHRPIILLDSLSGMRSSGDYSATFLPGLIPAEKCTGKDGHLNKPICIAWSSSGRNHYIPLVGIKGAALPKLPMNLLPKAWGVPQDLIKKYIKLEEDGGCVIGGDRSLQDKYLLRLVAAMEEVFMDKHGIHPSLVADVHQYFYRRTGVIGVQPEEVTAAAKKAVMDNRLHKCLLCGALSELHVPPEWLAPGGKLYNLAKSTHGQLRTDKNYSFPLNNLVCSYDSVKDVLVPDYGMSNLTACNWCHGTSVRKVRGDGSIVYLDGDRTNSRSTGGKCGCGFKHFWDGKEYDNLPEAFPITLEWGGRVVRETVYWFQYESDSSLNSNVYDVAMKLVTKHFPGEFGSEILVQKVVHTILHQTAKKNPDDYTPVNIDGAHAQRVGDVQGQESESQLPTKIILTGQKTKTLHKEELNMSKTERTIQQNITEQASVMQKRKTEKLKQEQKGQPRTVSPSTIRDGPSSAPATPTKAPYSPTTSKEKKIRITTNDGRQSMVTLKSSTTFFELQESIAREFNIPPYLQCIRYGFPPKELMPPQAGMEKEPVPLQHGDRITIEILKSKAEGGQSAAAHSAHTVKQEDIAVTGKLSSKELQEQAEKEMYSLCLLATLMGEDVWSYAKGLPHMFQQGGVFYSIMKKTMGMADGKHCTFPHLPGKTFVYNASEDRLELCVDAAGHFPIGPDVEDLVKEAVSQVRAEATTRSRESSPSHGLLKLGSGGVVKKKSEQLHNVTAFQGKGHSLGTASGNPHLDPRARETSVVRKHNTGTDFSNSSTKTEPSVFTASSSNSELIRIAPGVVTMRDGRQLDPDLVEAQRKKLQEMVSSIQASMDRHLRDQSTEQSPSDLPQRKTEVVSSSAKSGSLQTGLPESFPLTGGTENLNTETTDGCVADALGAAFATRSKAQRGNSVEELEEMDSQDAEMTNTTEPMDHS
Experiment: log2 ratio of Biotin-Ahx-Ub-VS probe labelling (fragment/DMSO); higher = less target engagement (more negative = stronger competition), active = hit call of the paper (q ≤ 0.05, log2 ratio ≤ -1)
Conditions: compound concentration: 200 uM; treatment time: 3 h
Quantity kind: log2 ratio of Biotin-Ahx-Ub-VS probe labelling
Answer using only a numeral; do not append any unit.

Worked examples, 2 molecules total:
Record lookup: for VCPIP1 (UniProt Q96JH7), what log2 ratio of Biotin-Ahx-Ub-VS probe labelling belongs to CC(NC(=O)CCl)c1cc2n(n1)CCCC2.Cl (centres undefined) ?
-0.662

Similarly, `CS(=O)(=O)c1ccc(CNC(=O)CCl)cc1` ?
-1.22

---
Record lookup: for VCPIP1 (UniProt Q96JH7), what log2 ratio of Biotin-Ahx-Ub-VS probe labelling belongs to `N#Cc1cnn(-c2ccccc2)c1NC(=O)CCl` ?
-2.18

Similarly, `CC(=O)Nc1ccc(NC(=O)CCl)cc1` ?
-1.31

Similarly, O=C(CCl)N1CCc2ccccc2C(O)C1 (centres undefined) ?
-0.506

====

Target: COPS5 (UniProt Q92905)
Sequence (Q92905 whole entry, looked up, the tested form may be a part): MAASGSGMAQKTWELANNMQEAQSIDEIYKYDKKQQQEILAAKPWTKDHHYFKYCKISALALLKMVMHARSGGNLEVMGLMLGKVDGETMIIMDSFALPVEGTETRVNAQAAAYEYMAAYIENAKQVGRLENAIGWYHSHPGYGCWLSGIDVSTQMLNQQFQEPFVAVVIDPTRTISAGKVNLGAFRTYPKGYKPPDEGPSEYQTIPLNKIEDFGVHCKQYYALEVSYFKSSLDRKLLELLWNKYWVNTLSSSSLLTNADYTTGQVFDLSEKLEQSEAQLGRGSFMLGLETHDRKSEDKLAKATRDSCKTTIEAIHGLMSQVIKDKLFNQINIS
Assay: log2 ratio of Biotin-Ahx-Ub-VS probe labelling (fragment/DMSO); higher = less target engagement (more negative = stronger competition), active = hit call of the paper (q ≤ 0.05, log2 ratio ≤ -1)
Conditions: compound concentration: 200 uM; treatment time: 3 h
Recorded log2 ratio of Biotin-Ahx-Ub-VS probe labelling for the following compounds
Answer using only a numeral; do not append any unit.

# lookup: log2 ratio of Biotin-Ahx-Ub-VS probe labelling of `Cc1ccc(CN(C)C(=O)CCl)o1`
0.0171

Similarly, CC(=O)C1CCCCN1C(=O)CCl (centres undefined) ?
-0.141

Similarly, `Cl.O=C(CCl)N1CCn2ncc(O)c2C1` ?
0.242

---
# lookup: log2 ratio of Biotin-Ahx-Ub-VS probe labelling of `COc1ccc(Cl)cc1NC(=O)CCl`
-0.0284

Similarly, `Cc1cccc(NC(=O)[C@@H]2CCCN2C(=O)CCl)n1` ?
-0.0478

Similarly, `CN(C)S(=O)(=O)c1ccccc1CNC(=O)CCl` ?
0.197

Similarly, `O=C(CCl)NCCc1cccc2ccccc12` ?
-0.0396

Similarly, `O=C(CCl)Nc1ccc(F)cc1Cl` ?
-0.284

Similarly, O=C(CCl)N1CCOCCC1c1ccccc1 (centres undefined) ?
-0.0175

Similarly, `N#Cc1ccc(CNC(=O)CCl)cc1` ?
0.228

Similarly, O=C(CCl)NC1CCC(C(F)(F)F)CC1 (centres undefined) ?
-0.114

Similarly, COCC1C=CCCN1C(=O)CCl (centres undefined) ?
-0.00365

====

Recorded log2 ratio of Biotin-Ahx-Ub-VS probe labelling for the following molecules
Molecular target: USP9X (UniProt Q93008)
Assay: log2 ratio of Biotin-Ahx-Ub-VS probe labelling (fragment/DMSO); higher = less target engagement (more negative = stronger competition), active = hit call of the paper (q ≤ 0.05, log2 ratio ≤ -1)
Conditions: compound concentration: 200 uM; treatment time: 3 h
Answer using only a numeral; do not append any unit.

Worked examples, 5 molecules total:
# lookup: log2 ratio of Biotin-Ahx-Ub-VS probe labelling of `Cc1ccc(-c2nnc(C)[nH]2)c(NC(=O)CCl)c1`
-0.0335

Similarly, `Cl.O=C(CCl)NCc1cc2c(nc1O)CCCC2` ?
-0.309

Similarly, `O=C(CCl)NC1CCN(C(=O)C2CCCCC2)CC1` ?
0.243

Similarly, `O=C(CCl)N1CCN(c2nc3ccccc3o2)CC1` ?
-0.248

Similarly, O=C(CCl)N1CCC(c2ccn[nH]2)C1 (centres undefined) ?
-0.391

---
# lookup: log2 ratio of Biotin-Ahx-Ub-VS probe labelling of `CCN(Cc1ccc(C#N)cc1F)C(=O)CCl`
-0.229

Similarly, `COCC[C@@H](NC(=O)CCl)c1ccccc1` ?
-0.0244

Similarly, O=C(CCl)N1CCOCCC1c1ccccc1 (centres undefined) ?
-0.168

Similarly, `O=C(CCl)Nc1ccc2c(c1)OC(F)(F)O2` ?
-0.301

====

Target: USP22 (UniProt Q9UPT9)
Sequence (whole entry): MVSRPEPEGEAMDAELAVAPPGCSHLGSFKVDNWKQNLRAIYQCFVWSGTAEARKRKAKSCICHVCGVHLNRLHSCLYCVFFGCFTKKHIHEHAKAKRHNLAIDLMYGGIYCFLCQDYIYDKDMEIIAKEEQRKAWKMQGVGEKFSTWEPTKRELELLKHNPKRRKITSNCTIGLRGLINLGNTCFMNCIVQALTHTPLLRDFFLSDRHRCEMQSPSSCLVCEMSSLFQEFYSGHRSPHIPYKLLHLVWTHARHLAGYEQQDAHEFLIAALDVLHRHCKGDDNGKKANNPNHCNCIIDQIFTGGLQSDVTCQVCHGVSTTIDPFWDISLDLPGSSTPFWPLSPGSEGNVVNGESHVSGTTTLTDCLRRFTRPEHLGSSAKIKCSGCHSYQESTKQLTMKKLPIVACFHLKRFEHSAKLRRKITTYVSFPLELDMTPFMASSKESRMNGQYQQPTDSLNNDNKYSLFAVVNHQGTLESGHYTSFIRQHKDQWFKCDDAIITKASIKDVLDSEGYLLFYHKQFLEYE
Assay: log2 ratio of Biotin-Ahx-Ub-VS probe labelling (fragment/DMSO); higher = less target engagement (more negative = stronger competition), active = hit call of the paper (q ≤ 0.05, log2 ratio ≤ -1)
Settings: compound concentration: 200 uM; treatment time: 3 h
Answer Not fulfilled if log2 ratio of Biotin-Ahx-Ub-VS probe labelling is under -0.0007, and Fulfilled if it is -0.0007 or more.

Threshold query (log2 ratio of Biotin-Ahx-Ub-VS probe labelling >= -0.0007) on CC(NC(=O)CCl)c1noc(Cc2ccccc2)n1 (centres undefined)
Not fulfilled

Similarly, `O=C(CCl)N(Cc1ccsc1)C1CC1` ?
Fulfilled

---
Threshold query (log2 ratio of Biotin-Ahx-Ub-VS probe labelling >= -0.0007) on Cc1cccc(C(CNC(=O)CCl)N2CCOCC2)c1.Cl (centres undefined)
Not fulfilled

Similarly, `CN(C)C(=O)c1ccc(CNC(=O)CCl)cc1` ?
Fulfilled

====

Biological target: USP38 (UniProt Q8NB14)
Sequence (Q8NB14 whole entry, the tested form may be a part): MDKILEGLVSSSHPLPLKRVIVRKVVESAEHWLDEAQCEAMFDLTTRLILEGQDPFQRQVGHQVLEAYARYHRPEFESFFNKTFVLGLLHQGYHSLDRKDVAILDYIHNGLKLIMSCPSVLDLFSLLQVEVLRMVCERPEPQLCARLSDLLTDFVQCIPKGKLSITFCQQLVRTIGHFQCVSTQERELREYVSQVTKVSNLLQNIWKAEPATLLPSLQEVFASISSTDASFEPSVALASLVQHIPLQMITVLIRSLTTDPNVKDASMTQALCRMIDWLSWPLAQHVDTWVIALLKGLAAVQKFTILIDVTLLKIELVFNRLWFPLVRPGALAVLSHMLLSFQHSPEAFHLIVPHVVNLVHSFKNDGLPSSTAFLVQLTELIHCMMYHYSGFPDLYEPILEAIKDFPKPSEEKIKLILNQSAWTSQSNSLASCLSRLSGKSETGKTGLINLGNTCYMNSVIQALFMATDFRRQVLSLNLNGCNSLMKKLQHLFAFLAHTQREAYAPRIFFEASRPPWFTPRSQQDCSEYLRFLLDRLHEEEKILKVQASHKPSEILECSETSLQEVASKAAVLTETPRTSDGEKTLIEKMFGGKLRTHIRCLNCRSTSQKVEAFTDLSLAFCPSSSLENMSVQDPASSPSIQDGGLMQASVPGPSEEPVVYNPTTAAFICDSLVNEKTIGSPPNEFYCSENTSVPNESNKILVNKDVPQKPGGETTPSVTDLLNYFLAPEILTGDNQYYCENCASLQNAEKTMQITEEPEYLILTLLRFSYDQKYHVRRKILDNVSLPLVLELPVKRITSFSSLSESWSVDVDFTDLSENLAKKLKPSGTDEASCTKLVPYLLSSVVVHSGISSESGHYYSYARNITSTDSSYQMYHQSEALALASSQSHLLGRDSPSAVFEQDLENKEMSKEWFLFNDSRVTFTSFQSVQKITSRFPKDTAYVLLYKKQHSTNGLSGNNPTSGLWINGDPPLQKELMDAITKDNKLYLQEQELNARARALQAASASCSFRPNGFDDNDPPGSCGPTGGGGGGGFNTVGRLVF
Assay: log2 ratio of Biotin-Ahx-Ub-VS probe labelling (fragment/DMSO); higher = less target engagement (more negative = stronger competition), active = hit call of the paper (q ≤ 0.05, log2 ratio ≤ -1)
Conditions: compound concentration: 200 uM; treatment time: 3 h
Answer label 0 if log2 ratio of Biotin-Ahx-Ub-VS probe labelling is under -0.1, and label 1 if it is -0.1 or more.

Sample answers from the record:
Threshold query (log2 ratio of Biotin-Ahx-Ub-VS probe labelling >= -0.1) on O=C(CCl)N1CCOC(CCc2ccccc2)C1 (configuration not stated)
label 0

Similarly, `CN(C)C(=O)c1ccc(NC(=O)CCl)cc1` ?
label 1

---
Threshold query (log2 ratio of Biotin-Ahx-Ub-VS probe labelling >= -0.1) on `O=C(CCl)Nc1ccc(F)cc1Cl`
label 0

Similarly, `O=C(CCl)N1CCC2(CCC(O)CC2)CC1` ?
label 1

Similarly, `Cl.O=C(CCl)N1CCn2ncc(O)c2C1` ?
label 0

Similarly, O=C(CCl)NC1CCS(=O)(=O)c2ccccc21 (configuration not stated) ?
label 0

Similarly, `O=C(CCl)N1CCC(C(=O)N2CCCCCC2)CC1` ?
label 0
